Listed here: items and their measured 8OG:A repair function score.
B1: library; numbered along this chain (parent)
chain: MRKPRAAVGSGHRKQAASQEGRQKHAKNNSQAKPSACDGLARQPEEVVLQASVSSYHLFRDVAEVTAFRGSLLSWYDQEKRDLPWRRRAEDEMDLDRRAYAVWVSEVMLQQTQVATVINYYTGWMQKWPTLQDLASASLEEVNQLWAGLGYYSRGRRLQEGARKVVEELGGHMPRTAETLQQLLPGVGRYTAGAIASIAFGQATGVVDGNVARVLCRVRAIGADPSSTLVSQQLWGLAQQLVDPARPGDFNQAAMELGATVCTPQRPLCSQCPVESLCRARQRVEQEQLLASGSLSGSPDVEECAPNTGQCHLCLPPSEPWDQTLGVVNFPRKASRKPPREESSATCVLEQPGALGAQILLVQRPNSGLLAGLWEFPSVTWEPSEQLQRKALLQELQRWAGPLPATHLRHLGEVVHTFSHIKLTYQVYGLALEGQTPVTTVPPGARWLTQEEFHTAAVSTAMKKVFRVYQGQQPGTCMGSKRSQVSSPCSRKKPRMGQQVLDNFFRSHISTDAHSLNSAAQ

- Variants of: B1
- ASSAY_DETAILS: 8OG:A repair function score (normalized; synonymous = 0, nonsense = -1) (normalized log-likelihood score); higher = more repair activity (WT-like);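 further: cells sorted at 72 h after reporter transfection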
- SETUP_CONDITIONS: with 8OG:A DNA repair reporter (GFP) in HEK-293 MUTYH KO cells
MEASUREMENT_LABEL: 8OG:A repair function score

[[record]]
sequence_change = "G372H"
measurement_label = "8OG:A repair function score"
experimental_value = -0.297

[[record]]
sequence_change = "A456N"
measurement_label = "8OG:A repair function score"
experimental_value = -0.487

[[record]]
sequence_change = "M108V"
measurement_label = "8OG:A repair function score"
experimental_value = -1.11

[[record]]
sequence_change = "Q426N"
measurement_label = "8OG:A repair function score"
experimental_value = -0.05

[[record]]
sequence_change = "Q132M"
measurement_label = "8OG:A repair function score"
experimental_value = -0.0607

[[record]]
sequence_change = "R154S"
measurement_label = "8OG:A repair function score"
experimental_value = -1.03

[[record]]
sequence_change = "P383Y"
measurement_label = "8OG:A repair function score"
experimental_value = -0.0911

[[record]]
sequence_change = "L149P"
measurement_label = "8OG:A repair function score"
experimental_value = -0.979

[[record]]
sequence_change = "Q450A"
measurement_label = "8OG:A repair function score"
experimental_value = -0.0533

[[record]]
sequence_change = "L58N"
measurement_label = "8OG:A repair function score"
experimental_value = 0.00327

[[record]]
sequence_change = "S480C"
measurement_label = "8OG:A repair function score"
experimental_value = -0.0352

[[record]]
sequence_change = "E302P"
measurement_label = "8OG:A repair function score"
experimental_value = -0.223

[[record]]
sequence_change = "P320L"
measurement_label = "8OG:A repair function score"
experimental_value = -0.0348

[[record]]
sequence_change = "A194N"
measurement_label = "8OG:A repair function score"
experimental_value = -0.737

[[record]]
sequence_change = "V218S"
measurement_label = "8OG:A repair function score"
experimental_value = -0.374

[[record]]
sequence_change = "T424H"
measurement_label = "8OG:A repair function score"
experimental_value = -0.235

[[record]]
sequence_change = "H514Q"
measurement_label = "8OG:A repair function score"
experimental_value = 0.00808

[[record]]
sequence_change = "H508Q"
measurement_label = "8OG:A repair function score"
experimental_value = 0.000578

[[record]]
sequence_change = "R87D"
measurement_label = "8OG:A repair function score"
experimental_value = -0.0278

[[record]]
sequence_change = "L180A"
measurement_label = "8OG:A repair function score"
experimental_value = -0.223

[[record]]
sequence_change = "T449Y"
measurement_label = "8OG:A repair function score"
experimental_value = 0.0178

[[record]]
sequence_change = "I421Y"
measurement_label = "8OG:A repair function score"
experimental_value = -0.435

[[record]]
sequence_change = "A405H"
measurement_label = "8OG:A repair function score"
experimental_value = -0.489

[[record]]
sequence_change = "I198E"
measurement_label = "8OG:A repair function score"
experimental_value = -0.552

[[record]]
sequence_change = "H416W"
measurement_label = "8OG:A repair function score"
experimental_value = -0.209

[[record]]
sequence_change = "W399M"
measurement_label = "8OG:A repair function score"
experimental_value = -0.301

[[record]]
sequence_change = "T417V"
measurement_label = "8OG:A repair function score"
experimental_value = 0.0389

[[record]]
sequence_change = "V207D"
measurement_label = "8OG:A repair function score"
experimental_value = -0.986

[[record]]
sequence_change = "V166G"
measurement_label = "8OG:A repair function score"
experimental_value = -0.466

[[record]]
sequence_change = "A461H"
measurement_label = "8OG:A repair function score"
experimental_value = -0.545

[[record]]
sequence_change = "T122R"
measurement_label = "8OG:A repair function score"
experimental_value = -0.0157

[[record]]
sequence_change = "G161N"
measurement_label = "8OG:A repair function score"
experimental_value = -0.325

[[record]]
sequence_change = "E302I"
measurement_label = "8OG:A repair function score"
experimental_value = -0.284

[[record]]
sequence_change = "V114L"
measurement_label = "8OG:A repair function score"
experimental_value = -0.441

[[record]]
sequence_change = "T436Q"
measurement_label = "8OG:A repair function score"
experimental_value = 0.0306

[[record]]
sequence_change = "G293K"
measurement_label = "8OG:A repair function score"
experimental_value = -0.0447

[[record]]
sequence_change = "P474E"
measurement_label = "8OG:A repair function score"
experimental_value = 0.0263

[[record]]
sequence_change = "V102N"
measurement_label = "8OG:A repair function score"
experimental_value = -1.28

[[record]]
sequence_change = "R98H"
measurement_label = "8OG:A repair function score"
experimental_value = -0.232

[[record]]
sequence_change = "I221Y"
measurement_label = "8OG:A repair function score"
experimental_value = -0.63

[[record]]
sequence_change = "R2P"
measurement_label = "8OG:A repair function score"
experimental_value = -0.00444

[[record]]
sequence_change = "G479R"
measurement_label = "8OG:A repair function score"
experimental_value = -0.0309

[[record]]
sequence_change = "S518C"
measurement_label = "8OG:A repair function score"
experimental_value = -0.0625

[[record]]
sequence_change = "C216F"
measurement_label = "8OG:A repair function score"
experimental_value = -0.905

[[record]]
sequence_change = "V65Q"
measurement_label = "8OG:A repair function score"
experimental_value = -0.0644

[[record]]
sequence_change = "R283F"
measurement_label = "8OG:A repair function score"
experimental_value = -0.16

